Provenance of the data: PubChem BioAssay

EXPERIMENT_DESCRIPTION: CREB reporter modulators under forskolin, primary screen, cell-based, PC12, CRE-LacZ reporter, forskolin-stimulated (AID 1146);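 also: PC12 cells with 6xCRE LacZ reporter stimulated by forskolin 10 µM; beta-galactosidase reporter signal reflecting CREB driven transcription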
ASSAY_CONTEXT: luminescence, 4.5 h, higher = more signal, called active from +8 up or from −8 down
REPORTED_ENDPOINT: z-score
Lab note: record just the number, no unit beside it.

*Q* So what does the record say about z-score for O=C1C[C@]2(c3ccc([N+](=O)[O-])cc3)C(=O)N(CCN3CCOCC3)c3cc(CO)ccc3[C@H]2N1CC12CC3CC(CC(C3)C1)C2 ?
*A* 0.247

*Q* Proceed to CCCNC(=O)OC[C@H]1O[C@H](CCON=C2[C@H]3CCn4c(=O)n(-c5ccccc5)c(=O)n4[C@H]3[C@H](O)[C@@H]3O[C@H]23)C=C[C@@H]1Oc1ccc(OC)cc1
*A* 0.301

*Q* Proceed to CC(C)=C1C(=O)C(c2ccccc2)=C2CN3C(=O)N(CCc4ccccc4)C(=O)[C@]3(Cc3ccc(F)cc3)[C@H]21
*A* 1.73

* * *

EXPERIMENT_DESCRIPTION: compound binding in COS7 lysate, probe aLAP1, primary screen, cell lysate, small-molecule microarray (AID 1124);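 also: lysate comes from COS7 cells expressing LAP1 and is applied at 0.3 µg/mL; score merges spot fluorescence near 667 nm with signal-to-noise over triplicate slides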
ASSAY_CONTEXT: probe aLAP1, fluorescence, higher = more signal
Each entry gets condition not met if its composite z-score stays under 0.1, and condition met if its composite z-score is 0.1 or above.

*Q* Given C=CCC(OC(C)=O)[C@@H]1[C@@H](N(Cc2cc3ccccc3o2)C(=O)Cc2ccc(F)cc2)c2cc(OCCCO)ccc2N1C(=O)Cc1ccc(OC)cc1 (some centres undefined) , state whether its composite z-score is at least 0.1.
*A* condition not met

*Q* Proceed to COc1cccc([C@@H]2Oc3ccc(Br)cc3C(=O)[C@H]2O)c1
*A* condition met

*Q* Proceed to CO[C@@H]1COC(=O)CC=C[C@@H](C)[C@H](OC)COC(=O)[C@H](COCc2ccccc2)NC(=O)CC=C[C@H]1C
*A* condition not met

*Q* Proceed to O=C1[C@H]2[C@H]3[C@H](O)[C@H](O)CC(=NOCc4ccccc4)[C@H]3CC[C@H]2C(=O)N1C[C@@H]1CCCO1
*A* condition met

*Q* Proceed to COC(=O)[C@H](C)NC(=O)CCC1CC(OC(=O)NCCc2ccc(F)cc2)CC2(CCCC(COC(=O)NCCc3ccc(Cl)cc3)O2)O1 (some centres undefined)
*A* condition not met

*Q* Proceed to O=C(NN=C1C[C@@H](O)[C@@H](O)[C@@H]2[C@@H]3C(=O)N(c4ccc(F)cc4F)C(=O)[C@@H]3CC[C@@H]12)OCc1ccccc1
*A* condition met

*Q* Proceed to CO[C@H]1O[C@H](CO)[C@@H](OC(=O)Nc2ccc3c(c2)OCO3)[C@H](OC(=O)Nc2ccccc2-c2ccccc2)[C@@H]1OC(=O)Nc1ccccc1-c1ccccc1
*A* condition met

*Q* Proceed to CN1C(=O)C2C=CC(C(O)c3ccc(I)cc3)N(NC(=O)OC(C)(C)C)C2C1=O (centres undefined)
*A* condition met

*Q* Proceed to COc1ccc([Si](C)(C)[C@@H]2[C@@H](CCO)O[C@]3(C(=O)N(Cc4ccc(NC(C)=O)cc4)c4ccccc43)[C@H]2C)cc1
*A* condition met

*Q* Proceed to CC(=O)OC[C@H]1O[C@@H](ON=C[C@@H](C)[C@H](OCc2ccccc2)C(C)C)[C@H](OC(C)=O)[C@@H](OC(C)=O)[C@@H]1OC(C)=O
*A* condition not met

*Q* Proceed to C#CCCCON=C1C[C@@H](O)[C@@H](O)[C@@H]2[C@@H]3C(=O)N(c4cccc(Oc5ccccc5)c4)C(=O)[C@@H]3CC[C@@H]12
*A* condition not met

*Q* Proceed to COC(=O)[C@@]1(Cc2ccc(F)cc2)[C@H]2c3cc(C(=O)N(C)C)n(Cc4ccc(OC)c(OC)c4)c3C[C@H]2CN1C(=O)c1ccccc1
*A* condition not met

*Q* Proceed to CC(C)(C)N1C(=O)[C@H]2[C@H]3[C@H](O)[C@H](O)CC(=NOCc4ccccc4)[C@@H]3CC[C@H]2C1=O
*A* condition met

*Q* Proceed to COC(=O)CC=C[C@H](C)[C@H](CO)NS(=O)(=O)c1ccc(C)cc1
*A* condition met

* * *

EXPERIMENT_DESCRIPTION: fission yeast growth modulation, primary screen, strain 972, OD600, 24 h, no modulator (AID 1090);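 also: basal condition with compound alone and no growth modifier present; test concentration not given here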
ASSAY_CONTEXT: S. pombe 972 growth, higher = more signal, called active from +8 up or from −8 down
REPORTED_ENDPOINT: z-score
Lab note: record just the number, no unit beside it.

*Q* So what does the record say about z-score for C=CC[C@@H]1C=C[C@H](ON=Cc2ccc(C(=O)N3[C@H](c4ccc(C)cc4)[C@@H](C)CC[C@H]3C(=O)OC)cc2)[C@@H](CO)O1 ?
*A* -0.119

*Q* Proceed to CCc1cc2c(nc1CC)CCN(CCC(C)=NOC[C@@H](O)[C@H]1O[C@@H]3OC(C)(C)O[C@@H]3[C@H]1O)C2
*A* 0.24

*Q* Proceed to COC(=O)[C@H](C)NC(=O)CCC1CC(OC(=O)NCCc2ccc(F)cc2)CC2(CCCC(COC(=O)NCC(c3ccccc3)c3ccccc3)O2)O1 (some centres undefined)
*A* 0.917

*Q* Proceed to COCCCNC(=O)[C@@]1(C)c2ccccc2C(=O)N(Cc2ccc(OC(F)(F)F)cc2)[C@H]1c1ccc(CO)cc1
*A* 0.203

*Q* Proceed to CO[C@@H]1COC(=O)CC=C[C@@H](C)[C@@H]2C=C[C@H](O)[C@@H](COC(=O)CCC[C@H]1C)O2
*A* 0.498

*Q* Proceed to CC(=O)OC[C@H]1O[C@H](CCON=C(C)CCN2CCc3nc(-c4ccccc4)c(-c4ccccc4)cc3C2)C=C[C@@H]1OC(C)=O
*A* -0.757

*Q* Proceed to CN(C)CCCNC(=O)[C@@H]1c2ccccc2C(=O)N(Cc2ccccc2)[C@H]1c1ccc(CO)cc1
*A* -0.699

*Q* Proceed to COc1ccccc1CN1C(=O)c2ccccc2[C@@]2(Cc3ccccc3N(C(C)C)C2=O)[C@@H]1c1ccc(CO)cc1
*A* -0.373

*Q* Proceed to O=C1[C@H]2[C@H]3[C@H](O)[C@H](O)CC(=NOCc4ccccc4)[C@H]3CC[C@H]2C(=O)N1c1ccc(F)cc1F
*A* -0.128

*Q* Proceed to [N-]=[N+]=NCc1ccccc1[C@@H]1OC(c2ccc(OCCCO)cc2)=N[C@]1(Cc1ccccc1)C(=O)N1CCOCC1
*A* -0.42

*Q* Proceed to COc1ccc(O[C@H]2C=C[C@@H](c3ccccc3)O[C@@H]2COC(=O)CCC(C)=NOC(C)CN2CCCCc3nc(C)c(C)cc32)cc1 (some centres undefined)
*A* -1.87

*Q* Proceed to COc1ccc(O[C@H]2C=C[C@@H](c3ccccc3)O[C@@H]2CON=C[C@@H](C)[C@H](OCc2ccccc2)C(C)C)cc1
*A* -0.564

*Q* Proceed to CC(CCC(=O)OC[C@H]1O[C@H](C#Cc2ccccc2)C=C[C@@H]1Oc1ccc(C)cc1)=NOC[C@@H](O)[C@H]1O[C@@H]2OC(C)(C)O[C@@H]2[C@H]1O
*A* -0.0762

*Q* Proceed to COc1ccc(O[C@H]2C=C[C@@H](c3ccccc3)O[C@@H]2COC(=O)CCC(C)=NO[C@@H](C)c2cc(-c3c(C)cc(C)cc3C)no2)cc1
*A* 1.09

* * *

EXPERIMENT_DESCRIPTION: basal 3T3-L1 adipocyte mitochondrial potential changes, profiling panel, cell-based, JC-1 fluorescence, 3T3-L1 adipocytes, 24 h, 100 nL compound (AID 1168); also: test concentration not given here
ASSAY_CONTEXT: JC-1 mitochondrial fluorescence, higher = more signal, called active from +8 up or from −8 down
Would you kindly list z-score for each of these molecules?
Lab note: record just the number, no unit beside it.

*Q* So what does the record say about z-score for CCN1C(=O)[C@H]2[C@H]3[C@H](O)[C@H](O)CC(=NOCc4ccccc4)[C@@H]3CC[C@H]2C1=O ?
*A* 0.752

*Q* Proceed to CC[C@@H](c1ccccc1)n1c(=O)n2n(c1=O)[C@H]1[C@H](O)[C@@H]3O[C@@H]3C(=NOCC(C)C)[C@H]1CC2
*A* -1.67

*Q* Proceed to CCOC(=O)CCN1C(=O)[C@H]2[C@H]3[C@H](O)[C@H](O)CC(=NOCc4ccccc4)[C@@H]3CC[C@H]2C1=O
*A* -0.522

*Q* Proceed to O=C1O[C@@H](c2ccccc2)[C@@H](c2ccccc2)N2[C@@H](c3ccc(OCCO)cc3)[C@]3(C(=O)Nc4ccc(C#CCCO)cc43)[C@@H](C(=O)N3CCCCCCC3)[C@H]12
*A* -0.564

*Q* Proceed to C#C[C@@H]1Oc2ccccc2S(=O)(=O)N2CCC[C@H]12
*A* 0.121

*Q* Proceed to Cc1ccc(C2CC=C(C(=O)O)CN2S(=O)(=O)c2ccc(C)cc2)cc1 (configuration not stated)
*A* -0.516

*Q* Proceed to CCN1C(=O)[C@H]2[C@H]3[C@H](O)[C@H](O)CC(=NOCc4ccccc4)[C@H]3CC[C@H]2C1=O
*A* -1.37
